Origin of measurements: paper PMC10882491

- experimental.system: PIP4K2C (Homo sapiens, UniProt Q8TBX8)
- Sequence (Q8TBX8 2-421): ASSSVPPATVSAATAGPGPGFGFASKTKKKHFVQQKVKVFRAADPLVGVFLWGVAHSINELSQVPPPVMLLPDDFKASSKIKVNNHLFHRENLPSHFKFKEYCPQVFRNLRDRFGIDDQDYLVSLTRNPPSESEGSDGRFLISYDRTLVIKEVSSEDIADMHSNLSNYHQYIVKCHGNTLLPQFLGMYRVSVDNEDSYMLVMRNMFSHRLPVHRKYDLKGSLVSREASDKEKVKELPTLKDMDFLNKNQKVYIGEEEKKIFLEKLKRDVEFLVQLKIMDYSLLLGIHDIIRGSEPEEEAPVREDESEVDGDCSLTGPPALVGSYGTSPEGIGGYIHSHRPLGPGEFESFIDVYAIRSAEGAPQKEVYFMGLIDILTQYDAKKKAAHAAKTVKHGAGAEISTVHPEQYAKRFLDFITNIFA
- assay.protocol: NanoBRET target engagement in living HEK293 cells

smiles.representation	IC50, nM
NC(=O)c1nc(Nc2ccccc2)sc1NC(=O)C1CCCCC1	250
